// data source = paper PMC11876007

system tested: MMP-1 (Homo sapiens, UniProt P03956)
Construct: purchased Abcam ab139443
Sequence (P03956 100-269 limits assumed): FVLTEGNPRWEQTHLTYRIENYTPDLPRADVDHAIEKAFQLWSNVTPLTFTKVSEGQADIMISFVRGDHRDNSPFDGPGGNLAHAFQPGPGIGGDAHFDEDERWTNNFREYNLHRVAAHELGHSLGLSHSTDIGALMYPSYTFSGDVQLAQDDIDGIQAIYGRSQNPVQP
assay explanation: In vitro MMP-1 inhibition assay (Abcam kit ab139443)
Type: biochemical
experimental setup: apparent IC50, concentration-dependent inhibition, Fig. 2B
parameter: IC50 (nM)
Report only the number, with the unit nM understood.

// query IC50 value for entry CC(C)C(NS(=O)(=O)c1ccc(-c2ccccc2)cc1)C(=O)NO (stereo not shown) 188

----------
Assign IC50 to each entry below.
system tested: MMP-2 (Homo sapiens, UniProt P08253)
Construct: purchased Abcam ab139446
Sequence (P08253 110-465 limits assumed): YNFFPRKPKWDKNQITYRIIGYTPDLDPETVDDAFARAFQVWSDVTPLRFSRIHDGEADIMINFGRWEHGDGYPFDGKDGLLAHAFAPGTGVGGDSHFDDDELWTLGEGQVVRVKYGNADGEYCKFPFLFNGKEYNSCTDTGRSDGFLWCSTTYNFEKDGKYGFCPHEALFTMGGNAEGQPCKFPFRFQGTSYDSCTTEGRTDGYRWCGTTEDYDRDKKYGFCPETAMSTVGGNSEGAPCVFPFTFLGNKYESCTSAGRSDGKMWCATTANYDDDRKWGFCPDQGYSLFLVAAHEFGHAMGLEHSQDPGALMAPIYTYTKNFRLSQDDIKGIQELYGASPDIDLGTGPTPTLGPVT
assay explanation: In vitro MMP-2 inhibition assay (Abcam kit ab139446)
Assay type: biochemical
experimental setup: apparent IC50, concentration-dependent inhibition, Fig. 2B
Quick note: give the figure in nM, leave out the unit.

For the record O=C(NO)C1CCCN1S(=O)(=O)c1ccc(-c2ccccc2)cc1 (centres unmarked) , what value of IC50 is listed for MMP-2 (Homo sapiens, UniProt P08253)? 18.9

So what IC50 did CCCCOc1ccc(S(=O)(=O)N2CCCC2C(=O)NO)cc1 (centres unmarked) get with MMP-2 (Homo sapiens, UniProt P08253)? 32.6
